Provide the reported Th-T fluorescence of Aβ42 (sheet Fig. 7a), mean of three wells of each item.
biological target: Aβ42 (Homo sapiens, UniProt P05067); test: Th-T (thioflavin-T) assay of Aβ42 aggregation; type: biochemical; settings: head suffix _10 (concentration 10); reading M76
Sequence (P05067 672-713): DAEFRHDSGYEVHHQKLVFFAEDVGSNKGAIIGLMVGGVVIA
One number for each entry.

Use the examples below as a reference point.
[[record]]
molecule = "C=C1CCC2C(C)(CCC=C(C)C)C(O)CCC2(C)C1Cc1c(OC)oc(CO)c(C(=O)OC)c1=O (centres unmarked)"
observed = 1.555

[[record]]
molecule = "C=C1CCC2C(C)(CCC=C(C)C)C(O)CCC2(C)C1Cc1c(OC)oc(CO)c(C)c1=O (centres unmarked)"
observed = 3.265


Dear colleague, could you please provide Th-T fluorescence of Aβ42 (sheet Fig. 7a), mean of three wells for the molecules listed below?
1. C=C1CCC2C(C)(CCC=C(C)C)C(O)CCC2(C)C1Cc1c(OC)oc(C)c(C(=O)OC)c1=O (centres unmarked)
2. C=C1CC[C@@H]2[C@](C)(CC[C@H]3O[C@H](C=C(C)C)C[C@@]23C)[C@@H]1Cc1c(OC)oc(CO)c(C(=O)OC)c1=O
3. C=C1CC[C@@H]2[C@](C)(CC[C@H]3O[C@H](C=C(C)C)C[C@@]23C)[C@@H]1Cc1c(OC)oc(CO)c(C)c1=O

(A)
[2.777, 0.921, 3.416]

Where these numbers come from: paper PMC7156458
